Target: T1, monomeric cynomolgus monkey CSF1R ectodomain protein (cynomolgus monkey, UniProt P07333 20-517 (human entry))
T1 construct: also called monomeric cyno CSF1R; Cyno CSF1R
T1 chain: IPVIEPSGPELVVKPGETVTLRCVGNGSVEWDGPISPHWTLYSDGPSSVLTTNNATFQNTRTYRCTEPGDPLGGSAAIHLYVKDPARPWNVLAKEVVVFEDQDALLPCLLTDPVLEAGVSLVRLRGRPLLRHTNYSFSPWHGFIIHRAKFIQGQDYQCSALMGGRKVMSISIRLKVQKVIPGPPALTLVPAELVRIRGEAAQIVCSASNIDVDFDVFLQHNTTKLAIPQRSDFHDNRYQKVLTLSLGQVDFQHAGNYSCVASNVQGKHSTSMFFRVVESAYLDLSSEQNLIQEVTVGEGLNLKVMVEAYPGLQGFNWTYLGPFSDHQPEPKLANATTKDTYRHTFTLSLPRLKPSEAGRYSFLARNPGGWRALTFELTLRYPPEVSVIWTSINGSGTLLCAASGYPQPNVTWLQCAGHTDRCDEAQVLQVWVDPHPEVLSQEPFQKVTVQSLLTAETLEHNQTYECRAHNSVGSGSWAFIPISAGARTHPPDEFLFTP
Assay: SPR Biacore, IgG captured, monomeric CSF1R analyte
observation_type: Kd (nM)

INSERT INTO assay_data (binder, observed_measurement) VALUES
  ('MH4 (antibody, V domains shown, Designer clone, human IgG4(S228P)/Ckappa IgG) VH: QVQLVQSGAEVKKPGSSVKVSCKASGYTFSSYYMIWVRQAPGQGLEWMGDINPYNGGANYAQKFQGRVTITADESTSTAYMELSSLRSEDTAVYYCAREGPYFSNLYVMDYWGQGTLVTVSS VL: EIVLTQSPATLSLSPGERATLSCRASQSVSYQGENYLAWYQQKPGQAPRLLIYDASNRATGIPARFSGSGSGTDFTLTISSLEPEDFAVYYCQLSNQDLLTFGGGTKVEIK', 2.9);
